Origin of measurements: patent US20240116922A1

Entries and their efflux ratio at 120 min, 1 μM values follow.
target: MDR1 (Homo sapiens (Human), UniProt P08183); experiment: in vitro; conditions: MDCK-MDR1
Sequence (P08183 whole entry): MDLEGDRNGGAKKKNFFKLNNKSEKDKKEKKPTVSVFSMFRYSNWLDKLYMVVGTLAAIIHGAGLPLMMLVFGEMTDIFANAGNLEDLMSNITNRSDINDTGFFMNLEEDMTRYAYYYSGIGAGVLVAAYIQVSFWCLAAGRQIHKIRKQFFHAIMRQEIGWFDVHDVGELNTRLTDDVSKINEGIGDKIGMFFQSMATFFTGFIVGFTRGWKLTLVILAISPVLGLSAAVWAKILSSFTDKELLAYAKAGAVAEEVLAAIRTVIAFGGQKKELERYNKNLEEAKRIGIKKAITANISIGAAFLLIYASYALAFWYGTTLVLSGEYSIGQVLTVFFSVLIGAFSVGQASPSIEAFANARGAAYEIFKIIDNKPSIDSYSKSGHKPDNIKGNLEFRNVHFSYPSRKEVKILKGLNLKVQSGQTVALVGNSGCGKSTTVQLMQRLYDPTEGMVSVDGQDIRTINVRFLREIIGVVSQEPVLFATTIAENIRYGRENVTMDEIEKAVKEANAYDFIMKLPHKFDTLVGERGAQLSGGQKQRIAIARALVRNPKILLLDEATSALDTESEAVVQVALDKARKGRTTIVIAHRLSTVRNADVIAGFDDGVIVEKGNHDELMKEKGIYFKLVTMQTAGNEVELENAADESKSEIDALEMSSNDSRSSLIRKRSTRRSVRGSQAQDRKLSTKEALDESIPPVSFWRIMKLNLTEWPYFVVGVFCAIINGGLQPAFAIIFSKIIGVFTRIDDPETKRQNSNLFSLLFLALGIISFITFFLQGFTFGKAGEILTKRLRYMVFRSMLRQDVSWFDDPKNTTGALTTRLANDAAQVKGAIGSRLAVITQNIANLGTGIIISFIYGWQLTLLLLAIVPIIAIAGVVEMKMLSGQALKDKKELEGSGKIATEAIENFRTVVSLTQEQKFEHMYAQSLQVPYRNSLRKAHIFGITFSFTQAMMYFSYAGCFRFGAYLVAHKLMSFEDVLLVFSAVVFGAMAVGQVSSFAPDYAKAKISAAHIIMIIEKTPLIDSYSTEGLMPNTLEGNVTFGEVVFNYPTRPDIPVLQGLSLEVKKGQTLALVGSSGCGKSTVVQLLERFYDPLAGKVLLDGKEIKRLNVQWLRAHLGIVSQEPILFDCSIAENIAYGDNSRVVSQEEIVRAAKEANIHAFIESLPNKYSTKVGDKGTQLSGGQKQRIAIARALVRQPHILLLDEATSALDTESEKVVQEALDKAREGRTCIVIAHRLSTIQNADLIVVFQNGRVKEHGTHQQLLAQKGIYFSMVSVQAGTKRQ
Structures can show the parent of a compound that is named as a salt.

| Molecule | Target Entity | efflux ratio at 120 min, 1 μM |
| --- | --- | --- |
| CCOc1nc2nc(C34COC(C)(C3)C4)cn2cc1C(=O)Nc1cccn(C2CC2)c1=O [Example 43] | MDR1 (Homo sapiens (Human), UniProt P08183) | 10.3 |
| CC(C)Oc1cc2nc(C34COC(C)(C3)C4)cn2cc1C(=O)Nc1cccc(C(F)F)n1 [Comparator 1A, reference compound] | MDR1 (Homo sapiens (Human), UniProt P08183) | 0.9 |
| CC(C)Oc1cc2nc([C@@]34CC[C@@](C)(C3)OC4)cn2cc1C(=O)Nc1cccn(C)c1=O (single isomer, unassigned) [Comparator 3D, reference compound] | MDR1 (Homo sapiens (Human), UniProt P08183) | 3.1 |
| CC(C)Oc1c(C(=O)Nc2cccn([C@@H]3C[C@@H]3F)c2=O)cn2cc([C@]34CC[C@](C)(C3)OC4)nc2c1F (single isomer, unassigned) [Example 126] | MDR1 (Homo sapiens (Human), UniProt P08183) | 4.4 |
| CC(C)Oc1cc2nc([C@@]34CC[C@@](C)(C3)OC4)cn2cc1C(=O)Nc1cccn([C@H]2C[C@H]2F)c1=O (single isomer, unassigned) [Example 169] | MDR1 (Homo sapiens (Human), UniProt P08183) | 10.4 |
| CC(C)Oc1cc2nc([C@]34CC[C@](C)(C3)OC4)cn2cc1C(=O)Nc1cccn([C@@H]2C[C@@H]2C)c1=O [Example 181, trifluoroacetate] | MDR1 (Homo sapiens (Human), UniProt P08183) | 5.3 |
| C[C@]12CC[C@](c3cn4cc(C(=O)Nc5cccn(C6CC6)c5=O)c(OC5CCC5)cc4n3)(CO1)C2 (single isomer, unassigned) [Example 26] | MDR1 (Homo sapiens (Human), UniProt P08183) | 4.1 |
| CC[C@H](C)Oc1cc2nc(C34COC(CF)(C3)C4)cn2cc1C(=O)Nc1cccn(C2CC2)c1=O (single isomer, unassigned) [Example 15] | MDR1 (Homo sapiens (Human), UniProt P08183) | 8.1 |
| C[C@H](Oc1cc2nc(C34COC(C)(C3)C4)cn2cc1C(=O)Nc1cccn(C2C[C@H]2F)c1=O)C(F)F (stereo partly shown) [Example 184] | MDR1 (Homo sapiens (Human), UniProt P08183) | 19.2 |
| C[C@H]1C[C@H]1n1cccc(NC(=O)c2cn3cc(C45COC(C)(C4)C5)nc3nc2OC2CCC2)c1=O [Example 189, trifluoroacetate] | MDR1 (Homo sapiens (Human), UniProt P08183) | 3.4 |
| CC(C)Oc1cc2nc(C34CCC(C)(CC3)OC4)cn2cc1C(=O)Nc1cccn(C2CC2)c1=O [Example 3] | MDR1 (Homo sapiens (Human), UniProt P08183) | 2.9 |
| C[C@@]12CC[C@@](c3cn4cc(C(=O)Nc5cccn(C6CC6)c5=O)c(OC5CCC5)cc4n3)(CO1)C2 (single isomer, unassigned) [Example 25] | MDR1 (Homo sapiens (Human), UniProt P08183) | 3.2 |
| CC[C@@H](C)Oc1cc2nc([C@@]34CC[C@@](C)(C3)OC4)cn2cc1C(=O)Nc1cccn(C2CC2)c1=O (single isomer, unassigned) [Example 21] | MDR1 (Homo sapiens (Human), UniProt P08183) | 3.2 |
| CC[C@@H](C)Oc1nc2nc(C34COC(C)(C3)C4)cn2cc1C(=O)Nc1cccn([C@@H]2C[C@@H]2F)c1=O (single isomer, unassigned) [Example 57] | MDR1 (Homo sapiens (Human), UniProt P08183) | 7.9 |
| CC(C)Oc1c(C(=O)Nc2cccn(C3CC3)c2=O)cn2cc([C@@]34CC[C@@](C)(C3)OC4)nc2c1F (single isomer, unassigned) [Example 67] | MDR1 (Homo sapiens (Human), UniProt P08183) | 2.8 |
| CC(C)Oc1cc2nc([C@]34CC[C@](C)(C3)OC4)cn2cc1C(=O)Nc1cccn(C2CC2F)c1=O (mixture of isomers) [Example 100] | MDR1 (Homo sapiens (Human), UniProt P08183) | 12.6 |
